# Tested on: Escherichia coli
# ASSAY_NOTES: Antibacterial activity against Escherichia coli K-12
# Type: functional
Please go through the items and note down their MIC.

Request: Give the measured MIC for `CCCCCCCCCNC(=O)C1=CCN(C)[C@@H]([C@H](O[C@@H]2O[C@H](CN)[C@@H](O)[C@H]2O)[C@H]2O[C@@H](n3ccc(=O)[nH]c3=O)[C@H](O)[C@@H]2O)C(=O)N1C`
Response: > 100 µg/mL

Request: Please supply the value of reported MIC for the item `CCCCCCCC/C=C/CCCCCCCCNC(=O)C1=CCN(C)[C@@H]([C@H](O[C@@H]2O[C@H](CN)[C@@H](O)[C@H]2O)[C@H]2O[C@@H](n3ccc(=O)[nH]c3=O)[C@H](O)[C@@H]2O)C(=O)N1C`
Response: > 100 µg/mL

Request: Report MIC, nothing else, for this compound: `CCCCCCCCCCCCCCNC(=O)C1=CCN(C)[C@@H]([C@H](O[C@@H]2O[C@H](CN)[C@@H](O)[C@H]2O)[C@H]2O[C@@H](n3ccc(=O)[nH]c3=O)[C@H](O)[C@@H]2O)C(=O)N1C`
Response: > 100 µg/mL

----------
# TARGET_UNDER_TEST: Phospho-N-acetylmuramoyl-pentapeptide-transferase (Aquifex aeolicus (strain VF5), UniProt O66465)
# Sequence (O66465 whole entry): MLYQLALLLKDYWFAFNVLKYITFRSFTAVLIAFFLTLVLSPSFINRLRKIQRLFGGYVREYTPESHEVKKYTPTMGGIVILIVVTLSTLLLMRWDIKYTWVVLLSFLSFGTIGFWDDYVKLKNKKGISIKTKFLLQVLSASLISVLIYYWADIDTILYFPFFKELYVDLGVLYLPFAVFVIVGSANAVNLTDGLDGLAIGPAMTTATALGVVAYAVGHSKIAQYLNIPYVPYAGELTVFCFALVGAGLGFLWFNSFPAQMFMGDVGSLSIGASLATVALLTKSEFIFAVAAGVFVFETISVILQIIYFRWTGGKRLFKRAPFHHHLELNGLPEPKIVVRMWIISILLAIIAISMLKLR
# ASSAY_NOTES: Inhibition of MraY in Aquifex aeolicus
METRIC: pIC50
# pIC50: negative log10 of molar concentration; output just the value

Request: Retrieve pIC50 measured for `NC[C@H]1O[C@@H](O[C@@H](Cc2cn(CCCCCCCCCCO)nn2)[C@H]2O[C@@H](n3ccc(=O)[nH]c3=O)[C@H](O)[C@@H]2O)[C@H](O)[C@@H]1O` and print it.
Response: 4.40

Request: Assign pIC50 to the following record: `NC[C@H]1O[C@@H](O[C@@H](Cc2cn(CCOCCOCCOCCOCCO)nn2)[C@H]2O[C@@H](n3ccc(=O)[nH]c3=O)[C@H](O)[C@@H]2O)[C@H](O)[C@@H]1O`
Response: 3.12

Request: Give recorded pIC50. `NC[C@H]1O[C@@H](O[C@@H](Cn2cc(CCCCCCCCCCO)nn2)[C@H]2O[C@@H](n3ccc(=O)[nH]c3=O)[C@H](O)[C@@H]2O)[C@H](O)[C@@H]1O`
Response: 4.12

----------
Give measured pIC50 for each item. Keep answers brief.
# TARGET_UNDER_TEST: Phospho-N-acetylmuramoyl-pentapeptide-transferase (Bacillus subtilis (strain 168), UniProt Q03521)
# Sequence (Q03521 whole entry): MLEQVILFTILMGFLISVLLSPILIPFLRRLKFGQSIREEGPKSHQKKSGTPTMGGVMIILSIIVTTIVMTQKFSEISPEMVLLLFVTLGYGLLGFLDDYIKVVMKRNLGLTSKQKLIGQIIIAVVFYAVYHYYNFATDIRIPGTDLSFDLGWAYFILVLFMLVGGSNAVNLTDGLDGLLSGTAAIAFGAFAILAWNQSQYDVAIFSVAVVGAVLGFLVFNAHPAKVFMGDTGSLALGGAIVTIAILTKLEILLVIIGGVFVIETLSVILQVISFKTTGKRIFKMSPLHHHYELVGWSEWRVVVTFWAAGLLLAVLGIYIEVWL
# ASSAY_NOTES: Inhibition of MraY in Bacillus subtilis
As a rule, pIC50 stands for the negative log10 of the concentration, concentration in M.

Request: Please report the measured pIC50 for `NC[C@H]1O[C@@H](O[C@@H](c2cn(CCCOc3ccc(C(=O)c4ccccc4)cc3)nn2)[C@H]2O[C@@H](n3ccc(=O)[nH]c3=O)[C@H](O)[C@@H]2O)[C@H](O)[C@@H]1O`
Response: 4.00

Request: // Input: `NC[C@H]1O[C@@H](O[C@@H](c2cn(Cc3ccc(COc4ccc(C(=O)c5ccccc5)cc4)cc3)nn2)[C@H]2O[C@@H](n3ccc(=O)[nH]c3=O)[C@H](O)[C@@H]2O)[C@H](O)[C@@H]1O` . Output its pIC50 only.
Response: 4.30
